We begin with a simple list: items and their reported log partition chloroform / HPLC water, unbuffered, traces of methanol / DMSO.
- MEASUREMENT NOTES: shake flask on a mixture of 185; loss from the water phase only; LC-Orbitrap peak areas
- CONDITION PARAMETERS: room
Lab book: enter the figure in log10, no units written.

Consider the reported log partition chloroform / HPLC water, unbuffered, traces of methanol / DMSO for these compounds:
OCCN(CCO)c1ccccc1
0.2882
CCCC1COC(Cn2cncn2)(c2ccc(Cl)cc2Cl)O1 (stereo not drawn)
0.2115
Nc1cc2c3c(c1)C(c1ccccc1)=N[C@@H](NC(=O)c1cccnc1)C(=O)N3CC2
1.811

Request: Fill blank: measured log partition chloroform / HPLC water, unbuffered, traces of methanol / DMSO of the compound CCCCC(O)(Cn1cncn1)c1ccc(Cl)cc1Cl (stereo not drawn) is ____.
Result: 1.307

Request: Fill blank: measured log partition chloroform / HPLC water, unbuffered, traces of methanol / DMSO of the compound COC(=O)c1sccc1S(N)(=O)=O is ____.
Result: 1.568

Request: Fill blank: measured log partition chloroform / HPLC water, unbuffered, traces of methanol / DMSO of the compound CN(C1CCCCC1)S(=O)(=O)c1ccccc1N is ____.
Result: 0.5005

Request: Fill blank: measured log partition chloroform / HPLC water, unbuffered, traces of methanol / DMSO of the compound O=C(OC1CCCCC1)c1ccccc1C(=O)OC1CCCCC1 is ____.
Result: 0.1245

Request: Fill blank: measured log partition chloroform / HPLC water, unbuffered, traces of methanol / DMSO of the compound CCC(C)(CC)c1cc(NC(=O)c2c(OC)cccc2OC)on1 is ____.
Result: 1.794

Request: Fill blank: measured log partition chloroform / HPLC water, unbuffered, traces of methanol / DMSO of the compound CC(C)(C)c1ccc(O)c(O)c1 is ____.
Result: 0.08964

Request: Fill blank: measured log partition chloroform / HPLC water, unbuffered, traces of methanol / DMSO of the compound OC(c1ccc(F)cc1)(c1cncnc1)c1ccccc1Cl (stereo not drawn) is ____.
Result: 2.317

Request: Fill blank: measured log partition chloroform / HPLC water, unbuffered, traces of methanol / DMSO of the compound NC(=O)Nc1ccc(Cl)cc1 is ____.
Result: -0.4936

Request: Fill blank: measured log partition chloroform / HPLC water, unbuffered, traces of methanol / DMSO of the compound CC(C)C1(C)N=C(c2nc3ccccc3cc2C(=O)O)NC1=O (stereo not drawn) is ____.
Result: -0.8011

---

- MEASUREMENT NOTES: shake flask on a mixture of 185; loss from the water phase only; LC-Orbitrap peak areas
- CONDITION PARAMETERS: room
We begin with a simple list: items and their reported log partition oleylalcohol / HPLC water, unbuffered, traces of methanol / DMSO.

OC(c1ccc(F)cc1)(c1cncnc1)c1ccccc1Cl (centres unmarked)
1.561 log10
N#CC(c1ccccc1)c1ccccc1
0.1292 log10
Oc1c(Cl)ccc(Cl)c1Cl
-0.8397 log10
CCCCC(CC)C(=O)OCCOCCOCCOCCOC(=O)C(CC)CCCC (centres unmarked)
1.482 log10
CCCCC(O)(Cn1cncn1)c1ccc(Cl)cc1Cl (centres unmarked)
3.139 log10
O=C1OC(=O)C2C3C=CC(C3)C12 (centres unmarked)
0.1202 log10
CCC(C)(CC)c1cc(NC(=O)c2c(OC)cccc2OC)on1
2.582 log10
CC(C)c1cccc(O)c1
-0.144 log10

Request: Fill blank: measured log partition oleylalcohol / HPLC water, unbuffered, traces of methanol / DMSO of the compound CCc1ccc(C(=O)NN(C(=O)c2cc(C)cc(C)c2)C(C)(C)C)cc1 is ____.
Result: 0.7925 log10

Request: Fill blank: measured log partition oleylalcohol / HPLC water, unbuffered, traces of methanol / DMSO of the compound O=C(Nc1ccccc1-c1ccc(Cl)cc1)c1cccnc1Cl is ____.
Result: 3.336 log10

Request: Fill blank: measured log partition oleylalcohol / HPLC water, unbuffered, traces of methanol / DMSO of the compound CCCCCCCCCCCC(=O)OCC(O)CO (centres unmarked) is ____.
Result: -1.087 log10

Request: Fill blank: measured log partition oleylalcohol / HPLC water, unbuffered, traces of methanol / DMSO of the compound Nc1cc2c3c(c1)C(c1ccccc1)=N[C@@H](NC(=O)c1cccnc1)C(=O)N3CC2 is ____.
Result: 1.341 log10

Request: Fill blank: measured log partition oleylalcohol / HPLC water, unbuffered, traces of methanol / DMSO of the compound CC(C)(C#N)Nc1nc(Cl)nc(NC2CC2)n1 is ____.
Result: 1.837 log10

Request: Fill blank: measured log partition oleylalcohol / HPLC water, unbuffered, traces of methanol / DMSO of the compound CN1COCN(Cc2cnc(Cl)s2)C1=N[N+](=O)[O-] is ____.
Result: -0.5161 log10

Request: Fill blank: measured log partition oleylalcohol / HPLC water, unbuffered, traces of methanol / DMSO of the compound CCCCNS(=O)(=O)c1ccc(C)cc1 is ____.
Result: 0.9177 log10

Request: Fill blank: measured log partition oleylalcohol / HPLC water, unbuffered, traces of methanol / DMSO of the compound CC(=O)/C=C/c1ccccc1 is ____.
Result: -0.0887 log10

Request: Fill blank: measured log partition oleylalcohol / HPLC water, unbuffered, traces of methanol / DMSO of the compound CC(=O)c1ccc2ccccc2c1 is ____.
Result: -0.06645 log10

Request: Fill blank: measured log partition oleylalcohol / HPLC water, unbuffered, traces of methanol / DMSO of the compound Cc1cc2c3c(c1)C(c1ccccc1)=N[C@@H](NC(=O)c1ccncc1)C(=O)N3CC2 is ____.
Result: 1.282 log10

Request: Fill blank: measured log partition oleylalcohol / HPLC water, unbuffered, traces of methanol / DMSO of the compound CCCCCCOc1cc(C)c(O)c(C)c1C is ____.
Result: 0.4249 log10

Request: Fill blank: measured log partition oleylalcohol / HPLC water, unbuffered, traces of methanol / DMSO of the compound CCCN(CCC)c1c([N+](=O)[O-])cc(C(C)C)cc1[N+](=O)[O-] is ____.
Result: 0.7657 log10

Request: Fill blank: measured log partition oleylalcohol / HPLC water, unbuffered, traces of methanol / DMSO of the compound CO/N=C(/C1=NOCCO1)c1ccccc1Oc1ncnc(Oc2ccccc2Cl)c1F is ____.
Result: 1.908 log10

Request: Fill blank: measured log partition oleylalcohol / HPLC water, unbuffered, traces of methanol / DMSO of the compound CC(=O)Oc1ccc(C(C)=O)cc1 is ____.
Result: 0.2271 log10
